Assay: Oral bioavailability in rat
Type: ADME, organism-based
Details: in vivo
Result type: bioavailability (%)
A number alone suffices; assume %.

Please report bioavailability for the following compound: C[C@H](C#Cc1ccc(Cc2ccc(F)cc2)s1)N(O)C(N)=O [ATRELEUTON]
60

---

Test: Oral bioavailability was determined in cynomolgus monkey
Type: ADME, organism-based, Macaca fascicularis
Conditions: in vivo
Result type: bioavailability (%)
Quick note: give the figure in %, leave out the unit.

Tell us which bioavailability value is on record for C[C@H](C#Cc1ccc(Cc2ccc(F)cc2)s1)N(O)C(N)=O
90
